# ASSAY TARGET: T1, activated KLK4 (human KLK4, C-terminal His tag, pro-KLK4 activated with thermolysin) (UniProt Q9Y5K2 31-254)
# T1 chain: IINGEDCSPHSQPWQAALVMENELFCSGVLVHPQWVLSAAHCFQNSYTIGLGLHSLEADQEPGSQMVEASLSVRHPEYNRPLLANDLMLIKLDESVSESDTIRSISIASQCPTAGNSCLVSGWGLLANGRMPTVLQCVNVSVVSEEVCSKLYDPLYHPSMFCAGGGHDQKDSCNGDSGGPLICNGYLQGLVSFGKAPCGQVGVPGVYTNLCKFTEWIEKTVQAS
# ASSAY METHOD TEXT: peptide substrate degradation inhibition
REPORTED ENDPOINT: IC50 (nM)

[
  {
    "BINDER": "KLK4 inhibitory peptide K40004 (designed binder) GSGMKETAAAKFERQHMDSPDLGTDDDDKAMADIGSANSDPQFGLFSKYRTPNCEHAQLGVCQKLYQPVCGSDMSTYANECTLCMKIREGGHNIKIIRNGPCGASAAA",
    "UNITS TEXT": "nM",
    "IC50": 2.1
  },
  {
    "BINDER": "KLK4/KLK8 inhibitory peptide K41025 (designed binder) GSGMKETAAAKFERQHMDSPDLGTDDDDKAMADIGSANSDPQFGLFSKYRTPNCSRYKSGGCTRIFDPVCGSDMSTYANECTLCMKIREGGHNIKIIRNGPCGASAAA",
    "UNITS TEXT": "nM",
    "IC50": 86
  },
  {
    "BINDER": "KLK4/KLK8 inhibitory peptide K41045 (designed binder) GSGMKETAAAKFERQHMDSPDLGTDDDDKAMADIGSANSDPQFGLFSKYRTPNCRKQYWVGCNRMYAPVCGSDMSTYANECTLCMKIREGGHNIKIIRNGPCGASAAA",
    "UNITS TEXT": "nM",
    "IC50": 2.3
  },
  {
    "BINDER": "KLK4 inhibitory peptide K40003 (designed binder) GSGMKETAAAKFERQHMDSPDLGTDDDDKAMADIGSANSDPQFGLFSKYRTPNCELYVEDVCQRIFKPVCGSDMSTYANECTLCMKIREGGHNIKIIRNGPCGASAAA",
    "UNITS TEXT": "nM",
    "IC50": 1.8
  },
  {
    "BINDER": "KLK4 inhibitory peptide K40001 (designed binder) GSGMKETAAAKFERQHMDSPDLGTDDDDKAMADIGSANSDPQFGLFSKYRTPNCRKYEYGVCQRTYLPVCGSDMSTYANECTLCMKIREGGHNIKIIRNGPCGASAAA",
    "UNITS TEXT": "nM",
    "IC50": 1.8
  },
  {
    "BINDER": "KLK4/KLK8 inhibitory peptide K41041 (designed binder) GSGMKETAAAKFERQHMDSPDLGTDDDDKAMADIGSANSDPQFGLFSKYRTPNCQRYSQWGCTRQLDPVCGSDMSTYANECTLCMKIREGGHNIKIIRNGPCGASAAA",
    "UNITS TEXT": "nM",
    "IC50": 2.7
  },
  {
    "BINDER": "KLK4/KLK8 inhibitory peptide K41046 (designed binder) GSGMKETAAAKFERQHMDSPDLGTDDDDKAMADIGSANSDPQFGLFSKYRTPNCGRYYRGWCFKSLEPVCGSDMSTYANECTLCMKIREGGHNIKIIRNGPCGASAAA",
    "UNITS TEXT": "nM",
    "IC50": 2
  },
  {
    "BINDER": "KLK4/KLK8 inhibitory peptide K41021 (designed binder) GSGMKETAAAKFERQHMDSPDLGTDDDDKAMADIGSANSDPQFGLFSKYRTPNCRKHTLDGCARIYDPVCGSDMSTYANECTLCMKIREGGHNIKIIRNGPCGASAAA",
    "UNITS TEXT": "nM",
    "IC50": 53
  }
]

P: KLK4/KLK8 inhibitory peptide K41047 (designed binder) GSGMKETAAAKFERQHMDSPDLGTDDDDKAMADIGSANSDPQFGLFSKYRTPNCMRFHKDGCARIYDPVCGSDMSTYANECTLCMKIREGGHNIKIIRNGPCGASAAA
Q: KLK4/KLK8 inhibitory peptide K41024 (designed binder) GSGMKETAAAKFERQHMDSPDLGTDDDDKAMADIGSANSDPQFGLFSKYRTPNCTRYVVNGCSRVYDPVCGSDMSTYANECTLCMKIREGGHNIKIIRNGPCGASAAA
R: KLK4/KLK8 inhibitory peptide K41042 (designed binder) GSGMKETAAAKFERQHMDSPDLGTDDDDKAMADIGSANSDPQFGLFSKYRTPNCSRYRREGCNRMYNPVCGSDMSTYANECTLCMKIREGGHNIKIIRNGPCGASAAA
S: KLK4/KLK8 inhibitory peptide K41043 (designed binder) GSGMKETAAAKFERQHMDSPDLGTDDDDKAMADIGSANSDPQFGLFSKYRTPNCRRYSIHGCNRMYAPVCGSDMSTYANECTLCMKIREGGHNIKIIRNGPCGASAAA
**Query** With regard to IC50, arrange the entries in ascending order, please. Order the labels as requested and give them as your answer.
**Result** S, P, R, Q
